B1: VTI1B (parent)
chain: ANETLAEMEEELRYAPLSFRNPMM

# Variants of: B1
# EXPERIMENT NOTES: protein stability index of a GFP-peptide fusion (GPS, HEK-293T) (PSI 1-6); higher = more stable;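 also: lentivirally expressed fusions sorted by FACS into six bins by GFP to DsRed ratio, PSI derived from sequencing read proportions per bin multiplied by bin number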
# CONDITION DESCRIPTION: c terminus: a fixed tail appended
Measured protein stability index values are reported for all entries that follow.
Answer as a number with no unit attached.

Use the examples below as a reference point.
1) E11N | 2.81
2) R13L | 1.7
3) E3W | 2.29
4) A6M | 2.86
5) E3I | 2.1
6) R13S | 2.25

# input I have this variant here, "P16L" , and I need its recorded protein stability index.
# output 1.88
